Attribute: growth
Tested on: A498 renal
Protocol Text: NCI-60 one-dose screen, 48 h (100 = growth as untreated, 0 = no growth, -100 = all killed)
Recorded Conditions: 10 µM unless noted
About 83,000 compounds went through this panel and 20% of them were active in at least one assay; those are over-represented in the sample as a whole.
Give the value in % but do not write % after it.

Use these answered entries as a reference point.
Compound	Study System	growth [%]
CC(C)C/C(=N\NC(=O)c1ccncc1)c1cc(Cl)ccc1O	A498 renal	49.5
CCC1=C(c2ccc(OC)cc2)C(C)(C)Oc2c1ccc(O)c2CN1CCCC1	A498 renal	58.4
CC(=O)c1cc(C(=O)c2ccc3c(c2)Sc2ccccc2N3)c2c(C)cc(C)cn12	A498 renal	-27.3
c1ccc(Nc2nnc(-c3cc(-c4cccnc4)n(-c4ccccc4)n3)s2)cc1	A498 renal	74.4

Query block: Find the recorded growth belonging to c1coc([C@@H]2C[C@@H]3Cc4ccc5ccccc5c4N2O3)c1 and report it.
Result block: 90.2

Query block: Find the recorded growth belonging to O=[N+]([O-])c1ccc(N/N=C/c2c(O)ccc3ccccc23)nc1 and report it.
Result block: 111

Query block: Find the recorded growth belonging to Cn1[nH]cc(/C=N/C(N)=O)c1=O and report it.
Result block: 104

Query block: Find the recorded growth belonging to N#Cc1cccc(/C=C(/C(=O)c2ccccc2)c2ccccc2)c1 and report it.
Result block: 74.3

Query block: Find the recorded growth belonging to COC(=O)[C@]12CC[C@@H](C)[C@H](C)[C@@H]1C1=CC[C@@H]3[C@@]4(C)C[C@@H](OC(=O)c5ccco5)[C@H](O)[C@@](C)(CO)[C@@H]4[C@H](O)C[C@@]3(C)[C@]1(C)CC2 and report it.
Result block: -94.5

Query block: Find the recorded growth belonging to NCCCc1nnc(CCC(=O)c2nc3ccccc3[nH]2)o1 and report it.
Result block: 97.4

Query block: Find the recorded growth belonging to CC1=C(C(=O)Nc2ccccc2)C(c2ccc3c(c2)OCCO3)NC(=O)N1 (stereo unspecified) and report it.
Result block: 101

Query block: Find the recorded growth belonging to COc1ccc(-c2c(-c3cc(OC)c(OC)c(OC)c3)noc2N)cc1 and report it.
Result block: 22.8

Query block: Find the recorded growth belonging to COc1cc2c(c(OC)c1OC)CCc1cnoc1-2 and report it.
Result block: 100

Query block: Find the recorded growth belonging to NC(=O)NN=C(C1CC1)C1CC1 and report it.
Result block: 107

Query block: Find the recorded growth belonging to N#CCCCCCn1c2ccccc2c2c3c(c4c5ccccc5[nH]c4c21)C(=O)N(O)C3=O and report it.
Result block: -76.3

Query block: Find the recorded growth belonging to COC(=O)[C@]1(C(C)C)N[C@H](c2cn(-c3ccccc3)nc2-c2ccccc2)[C@@H]2C(=O)N(c3ccc(Cl)cc3)C(=O)[C@@H]21 and report it.
Result block: 107

====

Attribute: growth
Tested on: UO-31 renal
Protocol Text: NCI-60 one-dose screen, 48 h (100 = growth as untreated, 0 = no growth, -100 = all killed)
Recorded Conditions: 10 µM unless noted
About 83,000 compounds went through this panel and 20% of them were active in at least one assay; those are over-represented in the sample as a whole.
Give the value in % but do not write % after it.

Molecule	Study System	Outcome Measure	Recorded Result
CC1(C)OC(=O)C(=Cc2ccccc2Br)C(=O)O1	UO-31 renal	growth	92.2
CN(C)c1nc(N)nc(Cn2c(-c3nonc3N)nc3ccccc32)n1	UO-31 renal	growth	65.2
CN(C)c1nc(-c2ccco2)n2nc(-c3ccco3)cc2n1	UO-31 renal	growth	40.5
Cc1cc(CC(=O)O)n(C)c1C(=O)c1ccc(Cl)cc1	UO-31 renal	growth	104

Query block: Find the recorded growth belonging to NC(=O)N/N=C/c1ccc(Br)o1 and report it.
Result block: 86.1

Query block: Find the recorded growth belonging to Cc1nn(-c2ccc(Cl)cc2)c2nc3c(nc12)C(=O)c1ccccc1-3 and report it.
Result block: 110

Query block: Find the recorded growth belonging to CCOC(=O)c1c(C)nc(C)c(C(=O)OCC)c1-c1cccnc1 and report it.
Result block: 94

Query block: Find the recorded growth belonging to CNc1ccc(CSc2ccc(Cl)cc2)cc1 and report it.
Result block: 58.3

Query block: Find the recorded growth belonging to O=C(NN(C(=O)c1ccccc1)c1cccs1)c1ccccc1 and report it.
Result block: 66.1

Query block: Find the recorded growth belonging to CC12CCCCC1C(C(N)=O)C(=O)O2 (configuration not stated) and report it.
Result block: 93.9

Query block: Find the recorded growth belonging to Nc1nc(SCC2(CCl)COC2)c2[nH]cnc2n1 and report it.
Result block: 75.9

====

Attribute: growth
Tested on: TK-10 renal
Protocol Text: NCI-60 one-dose screen, 48 h (100 = growth as untreated, 0 = no growth, -100 = all killed)
Recorded Conditions: 10 µM unless noted
The panel holds about 83,000 compounds, 20% with a hit somewhere; the sample as a whole holds those more often.
Give the value in % but do not write % after it.

>>> df
                                   compound  outcome_measure  recorded_result
0  COc1ccc(-c2c(N)noc2-c2cc(OC)c3c(c2)OCCO3)cc1           growth             77.8
1  CCCCC1Nc2nc(SC)n(C)c(=O)c2CN(Cc2ccccc2)C1=O (stereo unspecified)           growth             78.3
2  C[C@]12CC[C@@H]3c4ccc(O)c([N+](=O)[O-])c4CC[C@H]3[C@@H]1CC[C@@H]2NS(=O)(=O)c1cccc(Br)c1           growth             42.8
3  Cc1ccc2c(c1)C(=O)/C(=C/c1ncc([N+](=O)[O-])n1C)O2           growth            -29.8
4  COc1cccc(/C=C2\COc3ccc(O)c(O)c3C2=O)c1OC           growth             11.7

We next turn to a different compound, shown below.
Query block: Find the recorded growth belonging to O=[N+]([O-])c1ccc2c(c1)S(=O)c1cc([N+](=O)[O-])ccc1N2 and report it.
Result block: 110

====

Test system: CAKI-1 renal
Protocol Text: NCI-60 one-dose screen, 48 h
Recorded Conditions: 10 µM unless noted
Compounds without any hit were thinned out: in the full panel of roughly 83,000, 20% have a hit. Calls of active or inactive are those of the source. The calls were made as follows: active = growth percent below 10; inactive = the rest.
Outcomes you can answer with include only these: active, inactive

Compound	Category
O=C(CCc1nnc(Cn2cncn2)o1)c1nc2ccccc2[nH]1	inactive
NC(=Nc1ccccc1)SCCCCSC(N)=Nc1ccccc1	inactive
CC[C@]1(O)CC2CN(CCc3c([nH]c4ccccc34)[C@@](C(=O)OC)(c3cc4c(cc3OC)N(C)[C@H]3[C@@](O)(C(=O)OC)[C@H](OC(C)=O)[C@]5(CC)C=CCN6CC[C@]43[C@@H]65)C2)C1 (stereo not given in full)	inactive

Pending compound:
Query block: Per the assay record, what outcome was assigned to O=C(COC(=O)[C@H](C[Se][Se]C[C@H](NC(=O)c1ccc(Br)cc1F)C(=O)OCC(=O)c1ccc(F)cc1)NC(=O)c1ccc(Br)cc1F)c1ccc(F)cc1 ?
Result block: active

====

System: HT29 colon
Protocol Text: NCI-60 one-dose screen, 48 h (100 = growth as untreated, 0 = no growth, -100 = all killed)
Recorded Conditions: 10 µM unless noted
This is part of a sample that, as a whole, favours compounds with a hit. Of some 83,000 tested, about 20% had one in any assay.
Attribute: growth
Give the value in % but do not write % after it.

Use these answered entries as a reference point.
Compound	Study System	growth (%)
O=C1/C(=N/O)CCc2ccccc21	HT29 colon	101
COc1cc2c(cc1OCCCOc1ccc(-c3cc4ccccc4c4ccccc34)cc1)N=C[C@@H]1CCCN1C2=O	HT29 colon	-46.6
Clc1ccc(-n2cnc3c(Cl)ncnc32)cc1Cl	HT29 colon	74.8
C[C@]12CC[C@@H]3c4ccc(O)c([N+](=O)[O-])c4CC[C@H]3[C@@H]1CC[C@@H]2NS(=O)(=O)c1cccc(Br)c1	HT29 colon	68.1
CN(C)c1ccc2c(c1)/C(=N/O)c1ccccc1-2	HT29 colon	81.4

Query block: Find the recorded growth belonging to Cc1cc(O)c2c(c1)C[C@H]1[C@@H]3CC[C@H]4CC(=O)CC[C@]4(C)[C@H]3CC(=O)[C@]21C and report it.
Result block: 67.6

Query block: Find the recorded growth belonging to CO[C@H]1/C=C/O[C@@]2(C)Oc3c(C)c(O)c4c(O)c(c(/C=N/N5C(C)CN(Cc6ccccc6)CC5C)c(O)c4c3C2=O)NC(=O)/C(C)=C\C=C\[C@H](C)[C@H](O)[C@@H](C)[C@@H](O)[C@@H](C)[C@H](OC(C)=O)[C@@H]1C (stereo not given in full) and report it.
Result block: 87.6

Query block: Find the recorded growth belonging to O=[N+]([O-])c1cnc(Sc2ccncn2)c([N+](=O)[O-])c1 and report it.
Result block: 76.5

Query block: Find the recorded growth belonging to COc1cc2c(-c3nc4cc(Cl)c(F)cc4s3)cc(=O)oc2c(C)c1OC and report it.
Result block: -80

Query block: Find the recorded growth belonging to O=C1NCN(CCO)CN1 and report it.
Result block: 99.8

// data source = PubChem BioAssay (NCI)
